target: Carbonic anhydrase 2 (Homo sapiens, UniProt P00918); assay: Inhibition of human recombinant N-HA-tagged carbonic anhydrase 2 expressed in HEK293T cells using p-nitrophenyl acetate as substrate measured after 30 mins by colorimetric analysis
pIC50: −log10 of the molar value.
Measured pIC50 by item
OUTCOME_MEASURE: pIC50

{"MOL": "NS(=O)(=O)Oc1ccc(-c2ccc3sccc3c2)cc1", "OUTCOME_MEASURE": "pIC50", "ASSAY_VALUE": 5.88}
{"MOL": "CN(C)S(=O)(=O)Oc1ccc(-c2ccc3sccc3c2)cc1", "OUTCOME_MEASURE": "pIC50", "ASSAY_VALUE": 5.24}
{"MOL": "Cc1ccc(S(=O)(=O)Oc2ccc(-c3ccc4sccc4c3)cc2)cc1", "OUTCOME_MEASURE": "pIC50", "ASSAY_VALUE": 5.48}
{"MOL": "NS(=O)(=O)Oc1ccc(-c2ccc3occc3c2)cc1", "OUTCOME_MEASURE": "pIC50", "ASSAY_VALUE": 5.59}
{"MOL": "CS(=O)(=O)Oc1ccc(-c2ccc3sccc3c2)cc1", "OUTCOME_MEASURE": "pIC50", "ASSAY_VALUE": 5.82}
{"MOL": "CCS(=O)(=O)Oc1ccc(-c2ccc3sccc3c2)cc1", "OUTCOME_MEASURE": "pIC50", "ASSAY_VALUE": 5.89}
{"MOL": "O=S(=O)(Oc1ccc(-c2ccc3occc3c2)cc1)c1ccccc1", "OUTCOME_MEASURE": "pIC50", "ASSAY_VALUE": 6.39}

---

molecular target: UniProt P00918; test: Inhibition of human recombinant N-HA-tagged carbonic anhydrase 2 expressed in HEK293T cells using p-nitrophenyl acetate as substrate measured after 30 mins by colorimetric analysis
pIC50: −log10 of the molar value.
Returns MET if the recorded pIC50 is greater than or equal to 6, and NOT MET otherwise.

{"MOL": "CCS(=O)(=O)Oc1ccc(-c2ccc3occc3c2)cc1", "ANSWER_LABEL": "NOT MET"}
{"MOL": "CCCS(=O)(=O)Oc1ccc(-c2ccc3occc3c2)cc1", "ANSWER_LABEL": "NOT MET"}
{"MOL": "CCCS(=O)(=O)Oc1ccc(-c2ccc3sccc3c2)cc1", "ANSWER_LABEL": "MET"}
{"MOL": "O=S(=O)(Oc1ccc(-c2ccc3occc3c2)cc1)c1ccc(F)cc1", "ANSWER_LABEL": "MET"}
{"MOL": "CS(=O)(=O)Oc1ccc(-c2ccc3occc3c2)cc1", "ANSWER_LABEL": "NOT MET"}
{"MOL": "O=S(=O)(Oc1ccc(-c2ccc3sccc3c2)cc1)c1ccc(F)cc1", "ANSWER_LABEL": "NOT MET"}
{"MOL": "Cc1ccc(S(=O)(=O)Oc2ccc(-c3ccc4occc4c3)cc2)cc1", "ANSWER_LABEL": "MET"}

---

target: Carbonic anhydrase 2 (Homo sapiens, UniProt P00918); test: Inhibition of human recombinant N-HA-tagged carbonic anhydrase 2 expressed in HEK293T cells using p-nitrophenyl acetate as substrate measured after 30 mins by colorimetric analysis

{"MOL": "CNS(=O)(=O)Oc1ccc(-c2ccc3occc3c2)cc1", "IC50 [nM]": 1040}
{"MOL": "O=S(=O)(Oc1ccc(-c2ccc3sccc3c2)cc1)c1ccccc1", "IC50 [nM]": 1490}
{"MOL": "CNS(=O)(=O)Oc1ccc(-c2ccc3sccc3c2)cc1", "IC50 [nM]": 1210}
{"MOL": "CN(C)S(=O)(=O)Oc1ccc(-c2ccc3occc3c2)cc1", "IC50 [nM]": 1230}
